Origin of measurements: patent US20250051324A1

Biological target: PARP1 (Homo sapiens (Human), UniProt P09874)
Sequence (P09874 whole entry): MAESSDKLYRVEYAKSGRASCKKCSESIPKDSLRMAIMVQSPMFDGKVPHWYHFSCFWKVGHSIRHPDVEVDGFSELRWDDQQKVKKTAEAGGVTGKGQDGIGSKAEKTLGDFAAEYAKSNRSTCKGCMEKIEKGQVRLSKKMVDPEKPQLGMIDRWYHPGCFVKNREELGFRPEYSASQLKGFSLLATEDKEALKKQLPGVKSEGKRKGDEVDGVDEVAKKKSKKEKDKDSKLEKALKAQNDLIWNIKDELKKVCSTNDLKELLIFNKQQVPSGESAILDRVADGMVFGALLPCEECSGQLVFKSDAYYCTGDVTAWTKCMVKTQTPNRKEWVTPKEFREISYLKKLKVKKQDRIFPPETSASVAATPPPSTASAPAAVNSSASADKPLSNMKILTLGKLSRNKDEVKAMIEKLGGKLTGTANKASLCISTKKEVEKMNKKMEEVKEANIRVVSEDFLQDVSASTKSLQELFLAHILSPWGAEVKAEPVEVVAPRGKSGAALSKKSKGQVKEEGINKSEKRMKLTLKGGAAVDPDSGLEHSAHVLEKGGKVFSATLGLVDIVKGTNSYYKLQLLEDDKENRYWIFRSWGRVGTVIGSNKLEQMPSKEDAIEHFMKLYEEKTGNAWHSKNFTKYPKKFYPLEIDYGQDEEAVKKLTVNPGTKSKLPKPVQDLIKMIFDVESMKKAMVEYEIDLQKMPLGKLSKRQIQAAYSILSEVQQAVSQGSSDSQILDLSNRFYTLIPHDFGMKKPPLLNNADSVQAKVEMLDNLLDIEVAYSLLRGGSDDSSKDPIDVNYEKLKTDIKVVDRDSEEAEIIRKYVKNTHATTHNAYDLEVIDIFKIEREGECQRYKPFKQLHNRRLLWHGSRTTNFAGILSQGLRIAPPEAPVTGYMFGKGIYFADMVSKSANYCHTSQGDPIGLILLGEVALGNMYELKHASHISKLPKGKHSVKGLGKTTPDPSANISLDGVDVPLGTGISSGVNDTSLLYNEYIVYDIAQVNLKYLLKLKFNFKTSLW
Experiment: PARP enzyme activity assay (PARP1 chemiluminescent assay kit)
Format: biochemical
Settings: enzyme inhibitory activity, read-out: PARP-1 IC50
Source text: Experimental Materials: The PARP1 assay kit was purchased from BPS Bioscience, USA, specifically the 384-well chemiluminescent assay kit (Catalog No.: #80551). […] 7. […] The luminescence signal was immediately read on a Synergy HTX multi-mode reader. 8. […] The inhibition rate %=100*(average luminescence signal of the positive control group−luminescence signal of the compound)/(average luminescence signal of the positive control group−average luminescence signal of the negative control group). […]
Catalogue of IC50 readings, one per entry.
Express it in nM; write the number only.

Cc1c(C(F)(F)F)c(=O)[nH]c2cc(CN3CCN(c4cc5c(cn4)C(=O)NC5)CC3)cnc12 :: 3.48
Cc1c(C(F)(F)F)c(=O)[nH]c2cc(CN3CCN(c4ccc(C#N)cn4)CC3)cnc12 :: 1.26
CNC(=O)c1ccc(C2=CCN(Cc3cnc4c(C)c(C(F)(F)F)c(=O)[nH]c4c3)CC2)cn1 :: 0.83
CNC(=O)c1ccc(N2CCN(Cc3cnc4c(C)c(C(F)(F)F)c(=O)[nH]c4c3)C(CO)C2)cn1 (centres unmarked) :: 34.3
Cc1c(C(F)(F)F)c(=O)[nH]c2cc(CN3CCN(c4ncc(C(F)(F)F)cn4)CC3)cnc12 :: 5.48

Form field: reported IC50 of CNC(=O)c1ccc(N2CCN(Cc3cnc4c(C)c(C(F)(F)F)c(=O)[nH]c4c3)CC2C)cn1 (centres unmarked) 2.79

Form field: reported IC50 of `CNS(=O)(=O)c1ccc(N2CCN(Cc3cnc4c(C)c(C(F)(F)F)c(=O)[nH]c4c3)CC2)cc1` 7.37

Form field: reported IC50 of CNC(=O)c1ccc(N2CCN(Cc3cnc4c(C)c(C(F)(F)F)c(=O)[nH]c4c3)C(CC#N)C2)cn1 (centres unmarked) 1.53

---

test: in vivo; settings: male, ICR (CD1), mouse, po, 10 mg/kg
observed.property: AUC(0-inf)
Number first, unit second.

Form field: reported AUC(0-inf) of `CNC(=O)c1cnc(C2=CCN(Cc3cnc4c(C)c(C(F)(F)F)c(=O)[nH]c4c3)CC2)cn1` 2420 µg·h/mL

---

assay: Evaluation of pharmacokinetics in mice; conditions: male, ICR (CD1), mouse, plasma, po, 10 mg/kg
Just a reminder that ties go to false (0): only Cmax strictly below 40000 ng/mL counts as true (1).

Solved cases (6 shown):
CNC(=O)c1ccc(N2CCN(C(C)c3cnc4c(C)c(C(F)(F)F)c(=O)[nH]c4c3)CC2)cn1 (stereo not shown) :: true (1)
CCc1cc2ncc(CN3CCN(c4ccc(C(=O)NC)nc4)CC3)cc2[nH]c1=O [AZD5305, reference compound] :: true (1)
CNC(=O)c1ccc(N2CCN(Cc3cc4[nH]c(=O)c(C(F)(F)F)c(C)c4cn3)C[C@H]2C)cn1 :: true (1)
[2H]C([2H])([2H])NC(=O)c1ccc(N2CCN(Cc3cnc4c(C)c(C(F)(F)F)c(=O)[nH]c4c3)CC2)cn1 :: true (1)
CNC(=O)c1ccc(N2CCN(Cc3cnc4c(C)c(C(F)(F)F)c(=O)[nH]c4c3)C[C@H]2C)cn1 :: false (0)
CNC(=O)c1ccc(N2CCN(Cc3cnc4c(C)c(C(F)(F)F)c(=O)[nH]c4c3)C(C)C2)cn1 (stereo not shown) :: false (0)

Next:
Lab log: compare recorded Cmax with 40000 ng/mL; is it strictly lower for `CNC(=O)c1ccc(N2CCN(Cc3cnc4c(C)c(C(F)(F)F)c(=O)[nH]c4c3)CC2)c(F)n1` ? true (1)
